- Test system: MS2 coat protein
- Assay Protocol: apparent KD of MS2 coat protein; designed switch direction (-1 OFF switch, 1 ON switch): -1; higher = weaker reporter binding
- Recorded Conditions: input ligand: FMN 200 uM
Listing of recorded apparent KD of MS2 coat protein by entry.
Give the number first and the unit second.

AUCGUGUCAGGAUAUUGAAGUUCCGGGCAGUCCACGGAGCUCGAGAAGGGACAUGAGGAUCACCCAUGUCUCAU [Eternabot (L1) Solution 84] (Eterna round: R97, puzzle: Exclusion 4)	21.4 nM
UGUUGUCGCGCAGGAUAUGAGGAUCACCCAUAUAAGGAUAUCGAAAGAGAAGGUCUGAGGAUUACCCAGAAGGGCGGGACAACU [pwkr exNG2 2xF5 2xFMN.30] (Eterna round: R96, puzzle: Exclusion NG 2)	309 nM
UUAAUUUGAGGAUAUACUAUUAACCACAUGAGGAUCACCCAUGUUCUAUCAUGUAUAUGUGUAGAAGGCAGAAUGC [JR_Ex5_Sub071] (Eterna round: R97, puzzle: Exclusion 5)	58.1 nM

Documented apparent KD of MS2 coat protein of GCCAGGUGAUUCGGCCAUGACAUGAGGAUCACCCAUGUAACAAUCUAGCAAGCAAACAAGGCCGUCGUGUAGGUAUU [Rigeusarla] (Eterna round: R96, puzzle: Sensor v2, turn-off variant) : 78 nM

Documented apparent KD of MS2 coat protein of GGCAUGUAAGGAUAUGUGAAGGGAAGGAGAGGGAGAGGGAAGCAGAAGGUACAUGAGGAUCACCCAUGUAAGGG [AK-MS2ROC-r4-exclusion4-5.1] (Eterna round: R97, puzzle: Exclusion 4) : 203 nM

----------
- System: MS2 coat protein
- Assay Protocol: apparent KD of MS2 coat protein; designed switch direction (-1 OFF switch, 1 ON switch): -1; higher = weaker reporter binding
- Recorded Conditions: Eterna round: R95; input ligand: none
Property Name: apparent KD of MS2 coat protein

GAUUAUGCGAGCUUUAGGGACAUGAGGAUCACCCAUGUUCGUCUUAUUGGUCUAGGUACACUAACAUACCUAAAUCU [JMF 19] (puzzle: Sensor v3, turn-off variant 1)	21.3 nM
CAGUACUGAGGAUAUACAUGAGGAUCACCCAUGUGGUCCAGCUAGGAAACUAGCAAAAGUAGAAGGCAGUACUG [salish99_ex3_r3_083] (puzzle: Exclusion 3)	218 nM

Continue with the next sequence.
Value sought: apparent KD of MS2 coat protein, system MS2 coat protein, item UUUUUUUUGUUUUUUGUUUACAUGAGGAUCACCCAUGUGACGAGUUUAUGGGUGAACAAGCUUUUUGCUCGUCUUAU [Sensor v3 - Turn-off variant 1 - 5] (puzzle: Sensor v3, turn-off variant 1) . Result: 140 nM

----------
- System: K4 kissing-loop RNA reporter;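 also: bound reporter read as fluorescence of individual clusters on recovered sequencing chips by microscopy, with normalized cluster intensities fitted with a binding model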
- Assay Protocol: apparent KD of K4 kissing-loop reporter; higher = weaker reporter binding
- Recorded Conditions: Eterna round: R107; input ligand: FMN 200 uM
Listing of recorded apparent KD of K4 kissing-loop reporter by entry.
Answer format: numeric, nM implied, no suffix.

CGAGUCCUGAGGAGUGAUGUUCCUCGGCCACGAGGACCGGUACGGCCGCCACUCGUUACUCGGGCUUAGUAGCUAGCACUAAGCU [Quedmaon]	265

Documented apparent KD of K4 kissing-loop reporter of AAGCGUAAAAUGGCGGACAUACUGCUCCCACGAGGACCGGUACGGCCGCCACUCGAAUGCGGCAGUGAUGUUGCCGCCUUCGCGU [Zauslereed] : 74

Documented apparent KD of K4 kissing-loop reporter of AUUUUGGUUUAGAGUGAUGUUCCUUGUAUUCGAGGACCGGUACGGCCGCCACUCGGAUAGAAAAGAAAAGAAAUGUUUGAUUUUU [BDazzled - #8 SS Tryptophan A] : 339

Documented apparent KD of K4 kissing-loop reporter of GUACCAGUGAUGUUGGUAGGCGAGCGGGAUACCAGCCAAGACUCAGGCCCUUGGCAGCCCACAUAUCCCACGUAGGUAGUAGCUC [Same State - Theophylline A (Freestyle 17)] : 96
